Where these numbers come from: patent US10259810B2

# system.tested: ΔF508-CFTR (Homo sapiens, UniProt P13569, DEL508-508)
# Construct: host or cells: CFBE41o-, doxycycline-inducible
# Sequence (P13569 with tags, fused parts or gaps DEL508-508): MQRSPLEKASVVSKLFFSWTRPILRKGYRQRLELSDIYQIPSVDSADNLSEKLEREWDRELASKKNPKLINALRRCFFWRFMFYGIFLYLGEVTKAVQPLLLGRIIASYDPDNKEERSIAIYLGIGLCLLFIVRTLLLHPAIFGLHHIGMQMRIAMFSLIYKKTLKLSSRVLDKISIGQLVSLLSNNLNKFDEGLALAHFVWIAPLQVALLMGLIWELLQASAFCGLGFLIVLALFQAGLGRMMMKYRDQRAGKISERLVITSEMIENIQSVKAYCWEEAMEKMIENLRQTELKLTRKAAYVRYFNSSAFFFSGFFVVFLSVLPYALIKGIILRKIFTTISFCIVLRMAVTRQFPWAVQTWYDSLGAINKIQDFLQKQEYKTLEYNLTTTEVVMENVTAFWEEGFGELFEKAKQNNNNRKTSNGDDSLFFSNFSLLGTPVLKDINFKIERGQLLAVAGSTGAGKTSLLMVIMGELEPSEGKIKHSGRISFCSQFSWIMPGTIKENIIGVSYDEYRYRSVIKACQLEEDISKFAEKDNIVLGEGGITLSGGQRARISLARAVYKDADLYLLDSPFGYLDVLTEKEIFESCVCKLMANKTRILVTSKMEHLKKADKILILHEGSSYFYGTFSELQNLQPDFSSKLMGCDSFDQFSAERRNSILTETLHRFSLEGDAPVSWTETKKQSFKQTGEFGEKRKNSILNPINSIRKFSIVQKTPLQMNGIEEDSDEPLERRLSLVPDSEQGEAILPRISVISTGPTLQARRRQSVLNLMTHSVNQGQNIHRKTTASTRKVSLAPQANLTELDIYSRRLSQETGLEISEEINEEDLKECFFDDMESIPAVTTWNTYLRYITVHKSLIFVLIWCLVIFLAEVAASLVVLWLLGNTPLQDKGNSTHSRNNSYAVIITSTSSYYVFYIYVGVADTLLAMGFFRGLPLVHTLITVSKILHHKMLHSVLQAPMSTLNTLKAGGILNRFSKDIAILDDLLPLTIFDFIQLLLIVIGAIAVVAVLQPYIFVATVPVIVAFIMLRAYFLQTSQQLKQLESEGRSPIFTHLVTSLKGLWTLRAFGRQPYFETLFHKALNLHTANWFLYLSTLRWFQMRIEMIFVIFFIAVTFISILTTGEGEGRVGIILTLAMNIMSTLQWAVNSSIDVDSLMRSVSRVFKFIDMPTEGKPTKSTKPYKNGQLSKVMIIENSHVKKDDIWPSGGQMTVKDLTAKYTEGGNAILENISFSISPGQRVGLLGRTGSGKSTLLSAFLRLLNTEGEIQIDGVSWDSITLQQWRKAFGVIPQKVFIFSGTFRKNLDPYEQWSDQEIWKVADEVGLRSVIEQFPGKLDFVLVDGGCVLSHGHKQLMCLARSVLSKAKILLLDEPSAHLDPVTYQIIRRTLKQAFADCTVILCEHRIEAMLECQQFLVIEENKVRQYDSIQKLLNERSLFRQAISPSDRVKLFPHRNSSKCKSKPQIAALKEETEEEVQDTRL
# procedure.details: CFTR cell surface levels using HRP-tagged ΔF508-CFTR expressing CFBE cells, in the presence of a co-corrector
# Type: cell-based
# details: HRP-tagged ΔF508-CFTR CFBE cells, in the presence of 3 μM co-corrector; read-out: EC50
readout.type: pEC50
pEC50 field: float, defined as -log10 of concentration (mol/L).

Past entries and their recorded results:
CN(C)S(=O)(=O)NC(=O)c1cc(OCC2CCN(C3CCCCC3)CC2)c2c(C3CCC3)nn(-c3ccc(F)cc3)c2n1
6.15
COC1CCN(C2CCN(c3cc(C(=O)NS(=O)(=O)N4CCOCC4)nc4c3c(C3CCC3)nn4-c3ccc(F)cc3)CC2)CC1
6.95
COCC1CCN(c2cc(C(=O)NS(C)(=O)=O)nc3c2c(C2CCC2)nn3-c2ccnc(OC)c2)CC1
7.19
COC1CCN(c2cc(C(=O)NS(=O)(=O)CCNC(=O)c3ccccc3C(=O)O)nc3c2c(C2CCC2)nn3-c2ccccc2)CC1
6.33

## Task Item `Cc1cc(C)cc(-n2nc(C)c3c(-c4ccc(N5CCOCC5)cc4)cc(C(=O)NS(C)(=O)=O)nc32)c1` has what recorded pEC50?
## Result 6.13

## Task Item `CS(=O)(=O)NC(=O)c1cc(N2CCC(OCC3CC3)CC2)c2c(C3CCC3)nn(-c3ccccc3)c2n1` has what recorded pEC50?
## Result 6.74

## Task Item `CN(C)S(=O)(=O)NC(=O)c1cc(N2CCC(CN3CCOCC3)CC2)c2c(C3CCC3)nn(-c3ccc(F)cc3)c2n1` has what recorded pEC50?
## Result 6.97

###

# system.tested: CFTR ΔF508 (Homo sapiens, UniProt P13569, DEL508-508)
# Construct: bronchial epithelial cells isolated from CF patients homozygous for the CFTR ΔF508 mutation; McGill University; Asterand; University of North Carolina hAEC-CF; host or cells: primary human bronchial epithelial cells from CF patients homozygous for ΔF508, differentiated at air-liquid interface
# Sequence (P13569 with tags, fused parts or gaps DEL508-508): as above
# procedure.details: Chronic TECC assay, primary bronchial epithelial cells of CF patients homozygous for CFTR ΔF508 (corrector, co-corrector and potentiator)
# Type: cell-based
# details: chronic TECC; AUC = full area under the curve upon forskolin stimulation; read-out: EC50 (nM) (AUC**)
log10 of EC50 by entry:
All values: base-10 log of EC50 in nM.

Past entries and their recorded results:
COC1CCN(C2CCN(c3cc(C(=O)NS(=O)(=O)N4CCOCC4)nc4c3c(C3CCC3)nn4-c3ccc(F)cc3)CC2)CC1 [Compound 647]
2.18
CN(C)S(=O)(=O)NC(=O)c1cc(N2CCN(c3ccncc3)CC2)c2c(C3CCC3)nn(C3CCCCC3)c2n1 [Compound 469]
2.03
COCC1CCN(c2cc(C(=O)NS(C)(=O)=O)nc3c2c(C2CCC2)nn3-c2ccnc(OC)c2)CC1 [Compound 385]
1.09

## Task Item CN(C)S(=O)(=O)NC(=O)c1cc(N2CCC(N3CCC(F)CC3)CC2)c2c(C3CCC3)nn(-c3ccc(F)cc3)c2n1 [Compound 525] with CFTR ΔF508 (Homo sapiens, UniProt P13569, DEL508-508) - log10 of EC50?
## Result 1.70

## Task Item CN(C)S(=O)(=O)NC(=O)c1cc(N2CCC(N3CCN(C4CC4)CC3)CC2)c2c(C3CCC3)nn(-c3ccc(F)cc3)c2n1 [Compound 583] with CFTR ΔF508 (Homo sapiens, UniProt P13569, DEL508-508) - log10 of EC50?
## Result 1.71

## Task Item CC(C)Oc1nn(C2CCCCC2)c2nc(C(=O)NS(C)(=O)=O)cc(-c3ccc(CN4CCN(C)CC4)cc3)c12 [Compound 441] with CFTR ΔF508 (Homo sapiens, UniProt P13569, DEL508-508) - log10 of EC50?
## Result 2.31

## Task Item COCC1CCN(c2cc(C(=O)NS(=O)(=O)CCN3CCOCC3)nc3c2c(C2CCC2)nn3-c2ccccc2)CC1 [Compound 267] with CFTR ΔF508 (Homo sapiens, UniProt P13569, DEL508-508) - log10 of EC50?
## Result 2.11
